Values compiled from paper PMC3479139.

Target: APE1 (Homo sapiens)
Construct: made in house
Sequence (P27695 whole entry): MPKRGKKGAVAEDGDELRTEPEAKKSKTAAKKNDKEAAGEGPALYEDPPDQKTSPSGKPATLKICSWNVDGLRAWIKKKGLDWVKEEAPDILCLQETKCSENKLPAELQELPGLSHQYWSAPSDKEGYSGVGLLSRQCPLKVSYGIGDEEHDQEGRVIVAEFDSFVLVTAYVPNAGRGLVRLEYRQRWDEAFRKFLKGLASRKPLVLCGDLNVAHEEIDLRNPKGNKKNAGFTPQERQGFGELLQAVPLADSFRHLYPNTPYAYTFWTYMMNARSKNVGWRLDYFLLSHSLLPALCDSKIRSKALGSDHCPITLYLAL
Experiment: Fluorogenic kinetic qHTS APE1 incision assay (primary screen and retest of cherrypicked samples);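 further: purified APE1 cleaving a fluorophore/dark-quencher labelled 17-mer duplex DNA bearing a tetrahydrofuran AP site, fluorescence rise followed kinetically over the first 2 min, inhibition normalized to controls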
Assay type: biochemical
Conditions: retest of cherrypicked sample; read-out: APE1 Retest IC50
pIC50: −log10 of the molar value.

>  <compound>
O=C(c1cccc(-n2cccc2)c1)N1CCN(S(=O)(=O)c2ccccc2)CC1

>  <pIC50>
4.94

$$$$
>  <compound>
O=C(O)c1cccc(-c2ccc(/C=c3/sc4nc5ccccc5n4c3=O)o2)c1

>  <pIC50>
5.30

$$$$
>  <compound>
CCOc1ccc(NC(=O)c2cccc(-n3cccc3)c2)cc1S(=O)(=O)N1CCOCC1

>  <pIC50>
4.94

$$$$
>  <compound>
O=c1/c(=C/c2ccco2)sc2nc(-c3ccccc3Br)nn12

>  <pIC50>
5.10

$$$$
>  <compound>
COc1cccc(NC(=O)CN(C)C(=O)c2cc3c(s2)CCC3)c1

>  <pIC50>
4.49

$$$$
>  <compound>
Nc1c(C(=O)OCC(=O)Nc2cccc([N+](=O)[O-])c2)[nH]c(=O)[nH]c1=O

>  <pIC50>
4.79

$$$$
>  <compound>
O=C(COC(=O)c1ccccc1)Nc1ncc([N+](=O)[O-])s1

>  <pIC50>
4.94

$$$$
>  <compound>
COc1ccccc1N(CC(=O)NCc1ccco1)S(=O)(=O)c1ccc(C)cc1

>  <pIC50>
4.79

$$$$
>  <compound>
Cc1coc2c(C)c3oc(=O)c(CCC(=O)N[C@@H](C)C(=O)N[C@@H](Cc4ccccc4)C(=O)O)c(C)c3cc12

>  <pIC50>
4.74

$$$$
>  <compound>
CC1(C)CC2CC(C)(CN2C(=O)COC(=O)c2ccc(O)cc2O)C1 (centres unmarked)

>  <pIC50>
4.84

$$$$
>  <compound>
CC(=O)Oc1cc2cccc(OC(C)=O)c(=O)c2c(OC(C)=O)c1OC(C)=O

>  <pIC50>
5.20

$$$$
>  <compound>
CC(=O)Oc1cc(C(=O)OCC(=O)N2CCc3ccccc3C2)cc(OC(C)=O)c1OC(C)=O

>  <pIC50>
4.94

$$$$
>  <compound>
O=C(CSc1nnc(Nc2ccccc2F)s1)NC(=O)CN1CCCC1=O

>  <pIC50>
4.99

$$$$
>  <compound>
Cc1cccc(NC(=O)CNC(=O)CCc2nc3sc4c(c3c(=O)[nH]2)CCCC4)c1C

>  <pIC50>
4.44

$$$$
>  <compound>
c1ccc2c(NCCc3c[nH]c4ccccc34)c3ccccc3nc2c1

>  <pIC50>
4.74

$$$$
>  <compound>
CCOC(=O)c1cc(-c2ccc(N3CCOCC3)cc2)nn1-c1ccccc1C(=O)O

>  <pIC50>
4.85

$$$$
>  <compound>
N#C/C(=C\c1ccc(O)c(O)c1)C(=O)Nc1cccc2ncccc12

>  <pIC50>
5.29

$$$$
